Target: PI3K beta (Homo sapiens, UniProt P42338)
Construct: for the full-length p110-b subunit are generated and fused by overlapping PCR; p85(iSH2) fusion partner (see partner chain) (N); His tag (C); Tn5 (Trichoplusia ni) or TiniPro insect cells
Sequence (P42338 with tags, fused parts or gaps limits assumed): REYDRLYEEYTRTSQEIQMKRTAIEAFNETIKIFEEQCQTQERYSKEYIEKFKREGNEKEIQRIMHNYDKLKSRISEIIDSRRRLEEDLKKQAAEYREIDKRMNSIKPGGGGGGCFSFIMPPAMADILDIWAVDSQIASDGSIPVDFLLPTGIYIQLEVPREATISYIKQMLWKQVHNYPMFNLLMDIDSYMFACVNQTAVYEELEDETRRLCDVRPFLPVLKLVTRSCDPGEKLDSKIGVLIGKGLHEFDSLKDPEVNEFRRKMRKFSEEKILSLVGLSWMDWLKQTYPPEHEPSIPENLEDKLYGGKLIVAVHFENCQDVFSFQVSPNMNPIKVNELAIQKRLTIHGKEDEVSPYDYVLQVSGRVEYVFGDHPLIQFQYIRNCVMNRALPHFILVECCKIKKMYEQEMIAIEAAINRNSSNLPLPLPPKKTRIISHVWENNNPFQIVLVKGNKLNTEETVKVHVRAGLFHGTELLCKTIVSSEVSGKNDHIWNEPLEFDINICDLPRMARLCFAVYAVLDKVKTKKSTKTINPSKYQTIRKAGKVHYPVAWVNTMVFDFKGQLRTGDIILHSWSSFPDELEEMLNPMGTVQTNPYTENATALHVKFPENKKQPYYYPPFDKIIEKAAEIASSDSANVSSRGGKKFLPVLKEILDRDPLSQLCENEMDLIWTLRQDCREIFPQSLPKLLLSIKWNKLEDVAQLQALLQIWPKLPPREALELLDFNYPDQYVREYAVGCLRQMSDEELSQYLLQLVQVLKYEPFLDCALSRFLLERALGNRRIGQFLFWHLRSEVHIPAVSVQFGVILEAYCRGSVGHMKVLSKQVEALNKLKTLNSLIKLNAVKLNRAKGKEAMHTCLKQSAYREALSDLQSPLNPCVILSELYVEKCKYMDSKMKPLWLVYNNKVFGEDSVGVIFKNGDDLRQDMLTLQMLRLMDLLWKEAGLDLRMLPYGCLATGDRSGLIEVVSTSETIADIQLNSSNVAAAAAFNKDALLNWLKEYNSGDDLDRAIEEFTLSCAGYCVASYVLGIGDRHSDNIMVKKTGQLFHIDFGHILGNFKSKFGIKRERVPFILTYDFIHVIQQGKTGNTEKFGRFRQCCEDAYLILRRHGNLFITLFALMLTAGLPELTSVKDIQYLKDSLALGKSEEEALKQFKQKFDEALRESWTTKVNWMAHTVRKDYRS
Test: PI3K beta kinase assay (Kinase-Glo luminescence)
Experimental: In a more preferred assay, the kinase reaction is performed in a final volume of 10 μL per well of a low volume non binding CORNING, 384 well black plate (Cat. No. #3676). The final concentrations of ATP and phosphatidyl inositol (PI) in the assay are 1 μM and 10 μg/mL respectively. […] IC50 is determined by a four parameter curve fitting routine that comes along with “excel fit”. […] Alternatively, IC50 values are calculated using idbsXLfit model 204, which is a 4 parameter logistic model.
pIC50: −log10 of the molar value.
MEASURED_METRIC: pIC50

Example cases with answers are listed next.
>>> observed_measurement("Cc1nn(C)c(C)c1-n1c(=O)n(C)c2cnc3ccc(-c4ccc(N(C)C)nc4)cc3c21")
6.42
>>> observed_measurement("Cc1cc(-n2c(=O)n(C)c3cnc4ccc(-c5ccc(N(C)C)nc5)cc4c32)n(C)n1")
6.47

A = Cc1cc(-n2c(=O)n(C)c3cnc4ccc(-c5cnc(F)c(N)c5)cc4c32)n(C)n1
B = Cc1nn(C)cc1-n1c(=O)n(C)c2cnc3ccc(-c4cncc(N)c4)cc3c21
Q: Min pIC50? A | B // respond with label for picked entry
A: A
(A: 6.69, B: 7.33)

Values compiled from patent US20140005163A1.
